Target: Yap3 (UniProt P38749)
Sequence: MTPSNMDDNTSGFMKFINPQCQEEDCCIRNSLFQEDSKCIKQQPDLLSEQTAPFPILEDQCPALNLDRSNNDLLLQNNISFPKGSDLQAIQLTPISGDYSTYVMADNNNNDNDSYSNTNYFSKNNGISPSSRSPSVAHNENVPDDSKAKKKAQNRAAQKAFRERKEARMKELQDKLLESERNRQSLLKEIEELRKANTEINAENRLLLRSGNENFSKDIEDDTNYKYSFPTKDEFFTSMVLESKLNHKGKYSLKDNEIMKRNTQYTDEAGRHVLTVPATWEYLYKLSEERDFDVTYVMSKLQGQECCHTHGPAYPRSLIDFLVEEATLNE
Assay: PBM E-score (8-mer binding enrichment) (E-score (-0.5 to 0.5)); higher = stronger / more preferred TF binding
Details: protein concentration: 100 nM; construct: GST-full length
The full ranking holds about 33,000 sequences; the median of “E-score (-0.5 to 0.5)” is about -0.0034, and the highest 2% start at about 0.25. Shown is part of a subset that was picked to be rich in the highest values.
Criterion: PBM E-score meeting or surpassing 0.04. Met: class 1. Not met: class 0.

Reference set (3 entries):
[[record]]
residue_codes = "CTAAATAA"
class_assignment = "class 1"

[[record]]
residue_codes = "TGTCGAAA"
class_assignment = "class 0"

[[record]]
residue_codes = "ATAAATAG"
class_assignment = "class 1"


Hi, just wondering whether ACCCCTTC shows PBM E-score of 0.04 or higher.
class 0

Would you kindly repeat that for GAGATACA ?
class 1

Would you kindly repeat that for GAACCCAC ?
class 0

Would you kindly repeat that for AAACTAAC ?
class 1

Would you kindly repeat that for TAACTAAA ?
class 1

Would you kindly repeat that for TCACTAAA ?
class 1

Would you kindly repeat that for GGGCTCCA ?
class 0

Would you kindly repeat that for GGTTTTCA ?
class 0

Would you kindly repeat that for ATAAATAT ?
class 1

Would you kindly repeat that for ATAAATCA ?
class 1

Would you kindly repeat that for AAGATACT ?
class 0

Would you kindly repeat that for GTACAGAA ?
class 0

Would you kindly repeat that for ATCTATAA ?
class 0
